These measurements were taken from PubChem BioAssay (NCI).

# System: SF-268 CNS
# measurementProtocol: NCI-60 one-dose screen, 48 h (100 = growth as untreated, 0 = no growth, -100 = all killed)
# testContext: 10 µM unless noted
Compounds without any hit were thinned out: in the full panel of roughly 83,000, 20% have a hit.
Field: growth. Provide a value for each of the compounds that follow.
// note: answer is a bare numeric in %

The reported value for C=C(C)[C@@H]1CC[C@]2(C(=O)O)CC[C@]3(C)[C@H](CC[C@@H]4[C@@]5(C)C[C@@H](CC#Cc6ccccc6)C(=O)C(C)(C)[C@@H]5CC[C@]43C)[C@@H]12 in terms of growth is 50

// sample Nc1cc(N)nc(SCC(=O)O)n1 , its growth was 101

Lab note: C=C1C(=O)O[C@H]2[C@H]1CC/C(COC(=O)/C=C/c1cccnc1)=C\CC[C@@]1(C)O[C@@H]21 gave growth of 57.6

Summary for this compound, CCCCN(CCCC)CC(CN(CC)CC)OC(=O)Nc1ccccc1 (centres undefined) : growth is 94.9

====

# Test system: SF-539 CNS
# measurementProtocol: NCI-60 one-dose screen, 48 h (100 = growth as untreated, 0 = no growth, -100 = all killed)
# testContext: 10 µM unless noted
Compounds without any hit were thinned out: in the full panel of roughly 83,000, 20% have a hit.
Classify by measured growth: Condition met if it is equal to or exceeds 50%, Condition not met if it is smaller.

Does CC(=O)OCC1SC(OC(C)=O)C(NC(=O)/C=C/CCl)C(OC(C)=O)C1OC(C)=O (stereo unspecified) have a reported growth of at least 50%?
Condition met

Dear colleague, could you confirm whether CCCNc1nc(C)[nH]c(=O)c1S has growth at or above 50%?
Condition met

Decide: growth of Cc1cnc(-c2ccc(-c3ccc(NC(=O)Nc4c(F)cc(F)cc4F)cc3F)c3c2C(=O)NC3)[nH]1 >= 50%?
Condition met

Dear colleague, could you confirm whether CCOc1ccccc1C(=O)/C=C/c1cc2ccccc2[nH]c1=O has growth at or above 50%?
Condition not met

Test whether the molecule C=C1C(=O)O[C@H]2[C@H]1CC/C(COC(=O)CCCCC(=O)OC/C1=C/CC[C@@]3(C)O[C@H]3[C@H]3OC(=O)C(=C)[C@@H]3CC1)=C\CC[C@@]1(C)O[C@@H]21 records growth of 50% or higher.
Condition not met

API: above_or_equal(metric=growth, cutoff=50%) for item CN1C(=O)c2cc(Cl)nc3c(NC(=O)c4cccc(Cl)c4)c(Cl)c(NC(=O)c4cccc(Cl)c4)c1c23
Condition not met

Please tell me: is the molecule Cc1ccccc1NC(=O)c1sc2nc(C)c(C(C)O)cc2c1N (stereo unspecified) at or over 50% in terms of growth?
Condition not met

Identify whether the reported growth of the following molecule is 50% or greater: CC(=O)O[C@@H]1C[C@]2(C)[C@H]3[C@H](O)C[C@@H]4C5=CC(C)(C)CC[C@]5(C)CC[C@@]4(C)[C@]3(C)CC[C@H]2C(C)(C)[C@H]1O
Condition met

Say whether C#CC[C@@H]1C[C@]2(C)[C@H]3CC[C@@H]4[C@H]5[C@H](C(=C)C)CC[C@]5(C(=O)O)CC[C@@]4(C)[C@]3(C)CC[C@H]2C(C)(C)[C@H]1O shows growth of 50% or more.
Condition met

Is growth at least 50%? Consider COc1cc2nc3c(=O)n(-c4ccc(C#N)cc4)cnn3c(=O)c2cc1OC
Condition met

Decide: growth of Cc1c(Cl)cccc1NC(=O)c1sc2nc3c(cc2c1N)COCC3 >= 50%?
Condition not met

Does the molecule CCC[S@](=O)c1ccc2nc(NC(=O)OC)[nH]c2c1 have recorded growth that is 50% or more?
Condition met

Please tell me: is the molecule Cc1nc2sc(C(=O)Nc3cccc(Cl)c3C)c(N)c2cc1C(C)O (stereo unspecified) at or over 50% in terms of growth?
Condition not met

Hi, just wondering whether O=c1cc(/C=N\Nc2nc(-c3ccc(Cl)cc3Cl)cs2)c2cc(Cl)ccc2o1 shows growth of 50% or higher.
Condition met

Given Cc1[nH]c2ncnc(Oc3ccc(NC(=O)Nc4ccc(Cl)c(C(F)(F)F)c4)cc3)c2c1C , state whether its growth is at least 50%.
Condition met

Evaluate Cn1c2ccccc2c2c(OC(=O)c3ccccc3)c3c(nc21)-c1ccccc1C3 : growth at minimum 50%?
Condition met

Is reported growth greater than or equal to 50% here: O=C(Nc1ccc2ncnc(Nc3cccc(C(F)(F)F)c3)c2c1)c1cccs1
Condition met

Threshold query (growth >= 50%) on COc1ccc(Cl)c([N+](=O)[O-])c1
Condition met

Check the entry O=C(CN1N=C(c2ccc(F)cc2)CCC1=O)Nc1nc2ccccc2s1 : does growth equal or exceed 50%?
Condition not met

Form field: growth at least 50%? Entry: CC(=O)c1cc2c(N)c(C(=O)Nc3ccccn3)sc2nc1C
Condition met

// inclusive: growth at least 50%? input: COc1ccc2[nH]c(=O)c(/C=C/C(=O)c3ccccc3OC)cc2c1
Condition not met

Determine whether this molecule has growth no lower than 50%: CC1(C)Cc2c(Br)c(Br)c(Br)c(OCC(O)CN3CCOCC3)c2O1 (stereo unspecified)
Condition met

For this molecule, is measured growth 50% or higher? Cc1cc(Cl)cc(CN(Cc2ccccc2)Cc2c(O)ccc3ccccc23)c1O
Condition met

Reported growth reaches at least 50% for Cc1cc(C)nc(NS(=O)(=O)c2ccc(Nc3ccc4c5c(n(CCCN(C)C)c(=O)c4c3)-c3ccccc3C5=O)cc2)n1 ?
Condition met

Is growth for Nc1c(C(=O)Nc2ccccn2)sc2nc3c(cc12)CCCC3 at or above 50%?
Condition not met

Check the entry C=C1C(=O)O[C@H]2[C@H]1CC/C(COC(=O)c1cccnc1N)=C\CC[C@@]1(C)O[C@@H]21 : does growth equal or exceed 50%?
Condition not met

Can C=C(C)[C@@H]1CC[C@]2(C(=O)OCCCC[P+](c3ccccc3)(c3ccccc3)c3ccccc3)CC[C@]3(C)[C@H](CC[C@@H]4[C@@]5(C)CC[C@H](OC(=O)C(Cl)Cl)C(C)(C)[C@@H]5CC[C@]43C)[C@@H]12 be said to have growth at or above 50%?
Condition not met

Determine whether this molecule has growth no lower than 50%: [2H]c1nc(Nc2ncc3cc(C(=O)N(C)C)n(C4CCCC4)c3n2)c([2H])c([2H])c1N1C([2H])([2H])C([2H])([2H])NC([2H])([2H])C1([2H])[2H]
Condition met

API: above_or_equal(metric=growth, cutoff=50%) for item COC(=O)CCc1n(Cc2ccc3ccccc3c2)c2ccccc2[n+]1Cc1ccc2ccccc2c1
Condition not met

Could you tell me if the measured growth of Cc1cnc(SCc2ccc(Cl)cc2)[nH]c1=S reaches 50% or more?
Condition met

Does C1=CC2=CC=C3C=CC=C4C(c5nc6c7ccccc7c7ccccc7c6[nH]5)=CC(=C1)C2C34 (stereo unspecified) have a reported growth of at least 50%?
Condition met

Confirm if growth reported for the molecule COC(=O)c1ccc2c(c1)NC(=O)[C@@H]1CCCN21 is 50% or above.
Condition met

Given COc1ccc2nc(-c3ccc(Cl)cc3)cc(C(=O)N3N=C(c4ccc(N)cc4)CC3c3ccccc3)c2c1 (stereo unspecified) , state whether its growth is at least 50%.
Condition not met
